All figures here come from patent US20260258115A1.

Measured Kd, listed per entry.
Target system: T1, RSV prefusion F (preF), subtype B (respiratory syncytial virus subtype B)
T1 construct: also called Prefusion subtype B
Protocol details: BLI, IgG
Answer in nM, number only, no unit symbol.

Sample answers from the record:
Binder	Recorded endpoint	Assay result
ADI-14367 (antibody, V domains shown, full-length IgG; also called Ab 35) VH: EVQLLESGGGLVQPGGSLRLSCAASGFTFGSYDMNWVRQAPGKGLEWVSGISGSGDATYYADSVKGRFTISRDNSKNMLYLQMNSLSAEDMAVYYCARDRAFTMKYNSNWYKIYWGQGTMVTVSS VL: EIVLTQSPGTLSLSPGERATLSCRASQSVTSSYLAWYQQKPGQAPRLLIYGAFSRATGIPDRFSGSGSGTDFTLTISRLEPEDFAVYYCHHYGTSRWTFGQGTKVDIK	Kd	0.269
ADI-24833 (antibody, V domains shown, full-length IgG) VH: QVQLVESGGGLVKPGGSLRLSCAASGFTFSSYSMNWVRQAPGKGLEWVSSISSSSSYIYYADSVKGRFTISRDNAKNSLYLQMNSLRAEDTAVYYCARALTYYYDSSGHGADYWGQGTLVTVSS VL: QSVVTQPPSVSGAPGQRVTISCTGSSSNIGAGYDVHWYQQLPGTAPKLLIYGNSNRPSGVPDRFSGSKSGTSASLAITGLQAEDEADYYCQSYDSSLSVVFGGGTKLTVL	Kd	11.4

Moving on to the next binder.
ADI-24823 (antibody, V domains shown, full-length IgG) VH: EVQLLESGGGLVKPGGSLRLSCAASGFTFSSYSMNWVRQAPGKGLEWVSSISSSSSYIYYADSVKGRFTISRDNAKNSLYLQMNSLRAEDTAVYYCAREGDYYGSGRPFDYWGQGTLVTVSS VL: QSVVTQPPSVSGAPGQRVTISCTGSSSNIGAGYDVHWYQQLPGTAPKLLIYGNSNRPSGVPDRFSGSKSGTSASLAITGLQAEDEADYYCQSYDSSLSVVFGGGTKLTVL has a reported Kd of 6.03
